system: fluconazole-resistant C. parapsilosis s.l. (CAPA1); test: microbe, parasite or virus in culture; assay type: cell-based; details: Lodderomyces parapsilosis, read-out: MIC values CAPA1
# Lookup of reported MIC keyed by entry
Entry rule: numbers only, all in µg/mL.

Consider the worked cases shown below.
C[C@@H](c1ncncc1F)[C@](O)(Cn1cncn1)c1ccc(F)cc1F [VOR, voriconazole, reference compound]: 0.95
C[C@@H](n1ccc2nc(-c3ccc([N+](=O)[O-])cc3)cn2c1=O)[C@](O)(Cn1cncn1)c1ccc(F)cc1F: 0.011
C[C@@H](n1ccc2nc(-c3ccccc3)cn2c1=O)[C@](O)(Cn1cncn1)c1ccc(F)cc1F: 0.009

Next compound, please.
Task: Which MIC reading was recorded for the compound C[C@@H](n1ccc2nc(-c3ccc(C#N)cc3)cn2c1=O)[C@](O)(Cn1cncn1)c1ccc(F)cc1F ?
Result: 0.002

====

tested on: A. fumigatus susceptible strain ASFU7; assay: Antifungal susceptibility, spectrofluorimetric microdilution, ASFU7; type: cell-based, Aspergillus fumigatus; conditions: Aspergillus fumigatus, read-out: MIC values ASFU7
# Lookup of reported MIC keyed by entry
I'd appreciate it if you wrote the number followed by its unit.

Consider the worked cases shown below.
C[C@@H](n1ncc2cc(-c3ccc([N+](=O)[O-])cc3)cn2c1=O)[C@](O)(Cn1cncn1)c1ccc(F)cc1F: 8.31 µg/mL
C[C@@H](n1ccc2nc(-c3ccc(Cl)cc3)cn2c1=O)[C@](O)(Cn1cncn1)c1ccc(F)cc1F: 5.04 µg/mL
C[C@@H](n1ncc2cccn2c1=O)[C@](O)(Cn1cncn1)c1ccc(F)cc1F: 24.3 µg/mL

Next molecule, please.
Task: Which MIC reading was recorded for the molecule C[C@@H](n1ccc2nc(-c3ccc([N+](=O)[O-])cc3)cn2c1=O)[C@](O)(Cn1cncn1)c1ccc(F)cc1F ?
Result: 2.52 µg/mL

====

system: promastigote stage of a Leishmania mexicana strain; experiment: Anti-Trypanosomatidae activity, promastigote stage, spectrofluorimetric microdilution; assay type: cell-based; conditions: Leishmania mexicana; promastigote stage; 50% of control growth; read-out: L. mexicana (IC50 μM)
# Lookup of reported IC50 keyed by entry

Consider the worked cases shown below.
C[C@@H](n1ccc2nccn2c1=O)[C@](O)(Cn1cncn1)c1ccc(F)cc1F [Compound 27]: > 100 µM
Cc1cn2c(=O)n([C@H](C)[C@](O)(Cn3cncn3)c3ccc(F)cc3F)ccc2n1 [Compound 28]: > 100 µM
C[C@@H](n1ccc2nc(-c3ccc(C#N)cc3)cn2c1=O)[C@](O)(Cn1cncn1)c1ccc(F)cc1F [Compound 34]: 2.8 µM
C[C@@H](n1ccc2nc(-c3ccccc3)cn2c1=O)[C@](O)(Cn1cncn1)c1ccc(F)cc1F [Compound 29]: 2.8 µM
C[C@@H](n1ccc2nc(-c3ccc([N+](=O)[O-])cc3)cn2c1=O)[C@](O)(Cn1cncn1)c1ccc(F)cc1F [Compound 35]: 11.4 µM
N=C(N)c1ccc(OCCCCCOc2ccc(C(=N)N)cc2)cc1 [Pentamidine, reference compound]: 0.34 µM

Task: Which IC50 reading was recorded for the molecule C[C@@H](n1ccc2nc(-c3ccc(F)cc3)cn2c1=O)[C@](O)(Cn1cncn1)c1ccc(F)cc1F [Compound 30] ?
Result: 8.1 µM

====

Tested on: fluconazole-resistant C. parapsilosis s.l. (CAPA2)
Experiment: microbe, parasite or virus in culture
Assay type: cell-based
Conditions: Lodderomyces parapsilosis, read-out: MIC values CAPA2
Method: Eight strains of Candida spp. with various azoles-susceptibilities were used: • One fluconazole-susceptible C. albicans strain: CAAL93 • Two fluconazole-resistant C. albicans strains: CAAL111 (efflux pump) and CAAL117 (erg11 mutations+voriconazole-resistant) • five fluconazole-resistant Candida non albicans strains: C. krusei (CAKR7, CAKR8), C. glabrata (CAGL2), C. parapsilosis s.l. (CAPA1, CAPA2). Antifungal susceptibility was evaluated with a spectrofluorimetric microdilution method.
reported.endpoint: MIC (ng/mL)
Entry rule: numbers only, all in ng/mL.

C[C@@H](c1ncncc1F)[C@](O)(Cn1cncn1)c1ccc(F)cc1F [VOR, voriconazole, reference compound]: 360
C[C@@H](n1ccc2nc(-c3ccc(C#N)cc3)cn2c1=O)[C@](O)(Cn1cncn1)c1ccc(F)cc1F: 2
C[C@@H](n1ccc2nc(-c3ccc([N+](=O)[O-])cc3)cn2c1=O)[C@](O)(Cn1cncn1)c1ccc(F)cc1F: 4

Next compound, please.
Task: Under fluconazole-resistant C. parapsilosis s.l. (CAPA2): MIC value of C[C@@H](n1ccc2nc(-c3ccccc3)cn2c1=O)[C@](O)(Cn1cncn1)c1ccc(F)cc1F ?
Result: 7
